# GI50 per entry
# Tested on: EKVX
# METHOD NOTES: NCI tumour cell line growth inhibition, 48 h
The source made the active and inactive calls. Rule as the data show it: active = GI50 up to about 1.1 µM and inactive = higher.

COC12C=CC(CC1)c1c(O)ccc(O)c12 (centres undefined) :: > 66.2 µM (inactive)
COc1c(C)c(C/C=C(\C)CCCCO)c(OC)c(OC)c1OC :: > 100 µM (inactive)
Cc1cc(Cl)ccc1NC1=NC(=O)C(CC(=O)Nc2ccc(Cl)cc2Cl)S1 (centres undefined) :: > 100 µM (inactive)
CCCCCCCCCCCCCC(=O)NCO :: > 100 µM (inactive)
COc1cccc(N/C(C)=C2/CCOC2=O)c1 :: > 10 µM (inactive)

Continue with the next compound.
Incoming: Item under review: `O=c1ccc2ccc(S)cc2o1` . Reported GI50?
Outgoing: > 100 µM (inactive)

###

# Tested on: UACC-62
# METHOD NOTES: NCI tumour cell line growth inhibition, 48 h
The source made the active and inactive calls. Rule as the data show it: active = GI50 up to about 1.1 µM and inactive = higher.
Write down one outcome, taken from True (active), False (inactive)

The examples below pair each entry with its known result.
NC(=S)N/N=C/c1nccc2ccccc12 :: True
CCOC1CCC2C(CCC(/C=C/c3ccc(O)c4ncccc34)N2C)C1 (configuration not stated) :: False

Kindly review the next compound as well.
Incoming: Can you look up the reported call for `COc1cccc(N/C(C)=C2/CCOC2=O)c1` for me?
Outgoing: False

###

# Test system: NCI-H522
# METHOD NOTES: NCI tumour cell line growth inhibition, 48 h
Calls of active or inactive are those of the source. Rule as the data show it: active = GI50 up to about 1.1 µM and inactive = higher.
MEASURED METRIC: GI50

Record excerpt, results attached:
CC(=O)OCC12CN(C#N)C3C4COC(CC41)C1(C(=O)N(C)c4ccccc41)C32 (centres undefined) :: 12.1 µM (inactive)
Oc1nc2cc3nc(O)c(O)nc3cc2nc1O :: > 100 µM (inactive)
O=C1c2c(nc3ccccc3c2-c2ccccc2)CN1Nc1ccccn1 :: > 78.3 µM (inactive)

Incoming: Item under review: CC1CC(=O)C(CC(=O)O)[C@H]1C(C(=O)C(=O)Nc1cc(Cl)ccc1Cl)[N+](=O)[O-] (some centres undefined) . Reported GI50?
Outgoing: > 100 µM (inactive)

Incoming: Then C=CC/N=C1\N=C(C)C(C(=O)OCC)S1 (centres undefined) ?
Outgoing: > 100 µM (inactive)

###

# System: SR
# METHOD NOTES: NCI tumour cell line growth inhibition, 48 h
Activity calls are given as the source filed them. No stated cut-off is given here; in the data, active = GI50 up to about 1.1 µM and inactive = higher.
Write down one outcome, taken from t (active), f (inactive)

C/C=C/C=C/C=C/C=C/C(=O)O :: f
O=C1c2ccccc2C(=O)N1[C@@H](Cc1ccccc1)C(=O)n1cccc1CO :: f
Cc1cc(O)nc(NNC(C#N)c2cccc([N+](=O)[O-])c2)n1 (configuration not stated) :: f

Incoming: Can you look up the reported call for Cc1csc2c(=O)n(C3OC(CO)C(O)C3O)c(=O)[nH]c12 (configuration not stated) for me?
Outgoing: f

Incoming: Then Cc1c(Cl)ccc2c1NC(=O)C2(O)C(C(=O)c1ccccc1)c1ccccc1 (configuration not stated) ?
Outgoing: f

Incoming: Then `CC(=O)O[C@H]1C(=O)[C@@]2(C)[C@H]([C@H](OC(=O)c3cccc([N+](=O)[O-])c3)[C@]3(O)C[C@H](OC(=O)[C@H](O)[C@@H](NC(=O)c4ccccc4)c4ccccc4)C(C)=C1C3(C)C)[C@]1(OC(C)=O)CO[C@@H]1C[C@@H]2O` ?
Outgoing: t

Incoming: Then CCCCCCCCCCCCCC(=O)OCC(C[As](=O)(O)O)OC(=O)CCCCCCCCCCCCC (configuration not stated) ?
Outgoing: f

###

# GI50 per entry
# Tested on: MDA-N
# METHOD NOTES: NCI tumour cell line growth inhibition, 48 h
Activity calls are given as the source filed them. Rule as the data show it: active = GI50 up to about 1.1 µM and inactive = higher.

Incoming: Item under review: `c1ccc([P+](CCCCCC[P+](c2ccccc2)(c2ccccc2)c2ccccc2)(c2ccccc2)c2ccccc2)cc1` . Reported GI50?
Outgoing: 16.1 µM (inactive)

Incoming: Then C[N+]12C=CC=C1C(N1CCCC1)c1scc(-c3ccc(Br)cc3)c12 (stereo not given) ?
Outgoing: 27 µM (inactive)

Incoming: Then Cc1ccc(S(=O)(=O)N/N=C2\CC(C)OC3=C2CCCCCC3)cc1 (stereo not given) ?
Outgoing: > 100 µM (inactive)

Incoming: Then O=C1OC(CS(=O)(=O)c2ccccc2)CC1O (stereo not given) ?
Outgoing: > 100 µM (inactive)

Incoming: Then `Cc1nc(C(N)=S)sc1C(=O)CC(=O)C(=O)Nc1cccc(Cl)c1C` ?
Outgoing: > 100 µM (inactive)

Incoming: Then FC(F)(F)C1(c2ccccc2)SCc2nc3ccccc3n21 (stereo not given) ?
Outgoing: 38.3 µM (inactive)

Incoming: Then `CC1(C)O[C@H]([C@H](O)c2nnc3ccc(Cl)nn23)[C@@H]([C@H]2COC(C)(C)O2)O1` ?
Outgoing: > 100 µM (inactive)

Incoming: Then `[N-]=[N+]=NC1=CC(=O)c2cccc3cccc1c23` ?
Outgoing: 46.2 µM (inactive)

Incoming: Then `O=c1[nH]c2nccnc2c2c([N+](=O)[O-])cccc12` ?
Outgoing: > 100 µM (inactive)

Incoming: Then `Cc1sc2c(c1C)/C(=N\O)c1cccn1-2` ?
Outgoing: 40.6 µM (inactive)

###

# Tested on: SF-268
# METHOD NOTES: NCI tumour cell line growth inhibition, 48 h
Calls of active or inactive are those of the source. Cut-off read from the data, not from the text of the source: active = GI50 up to about 1.1 µM and inactive = higher. Peptide text beside a SMILES is read from it. * marks the point of attachment. Boc = CC(C)(C)OC(=O)*; OBn = c1ccc(CO*)cc1
Write down one outcome, taken from YES = active, NO = inactive

The examples below pair each entry with its known result.
CC1(C)C2CC(O)C1CCC2=O (stereo unspecified) :: NO
CC1=CC[C@](C)(O)[C@@]2(C)CC[C@H]3C(=C(C)C)C(=O)C[C@]3(C)C[C@H]12 :: NO
N=c1oc2c(Cl)cc(Cl)cc2cc1C(=O)Nc1ccccn1 :: NO
O=C(CSc1nc2ccccc2c2ccccc12)c1ccccc1 :: NO
C#C[C@]1(O)[C@@H](CO)O[C@@H](n2ccc(=O)[nH]c2=O)[C@@H]1O :: YES
Cc1ccc(S(=O)(=O)NC(=O)C2C(=O)CC3(CCCCC3)CC2=O)cc1 :: NO

Incoming: Can you look up the reported call for `O=C(CN1CCCC1=O)CS(=O)(=O)c1ccccc1` for me?
Outgoing: NO

Incoming: Then `COc1ccc(CNc2nc3cc(C(F)(F)F)ccc3nc2C)cc1OC` ?
Outgoing: NO

Incoming: Then CC1(C)OC1COc1c2occc2cc2ccc(=O)oc12 (stereo unspecified) ?
Outgoing: NO

Incoming: Then C=C(C1=CC(=O)C(C)(C)O1)[C@@H]1CC=C([C@@H]2CC[C@H]3[C@@]2(C)CC[C@H]2C(C)(C)C(=O)[C@H](OC(=O)CC(C)(O)CC(=O)O)C[C@]32C)[C@H](O)O1 (stereo partly specified) ?
Outgoing: NO

Incoming: Then `C=CCCON(C(=O)OC(C)(C)C)C(C)(C)C` ?
Outgoing: NO

Incoming: Then `CC(C)(C)CI` ?
Outgoing: NO

Incoming: Then CC(C)CC(NC(=O)OC(C)(C)C)C(=O)NC(CC(=O)OCc1ccccc1)C(N)=O (stereo not drawn) (Boc-Leu-Asp(OBn)-NH2; configuration not given here) ?
Outgoing: NO

Incoming: Then `COc1cc(Nc2c3ccccc3nc3ccccc23)ccc1NS(C)(=O)=O` ?
Outgoing: NO

Incoming: Then Cc1cc(O)nc(NNC(C#N)c2ccco2)n1 (stereo unspecified) ?
Outgoing: NO

Incoming: Then `CC(=O)NNc1nc(C)c(C(=O)/C=C/c2ccc(/C=C/C(=O)c3sc(NNC(C)=O)nc3C)cc2)s1` ?
Outgoing: NO

Incoming: Then CC/C=C\C/C=C\C1CC(=O)NCCCNCCCCN1 (stereo unspecified) ?
Outgoing: NO

Incoming: Then NC1C=NNC1=O (stereo unspecified) ?
Outgoing: NO

Incoming: Then `Cc1ccc(NC(=O)C(=O)Cc2cccc[n+]2[O-])cc1C` ?
Outgoing: NO

Incoming: Then CC(C)C1=CC(=O)C(C)(C2=NC(C)(C)CO2)c2ccccc21 (stereo unspecified) ?
Outgoing: NO

Incoming: Then `N#Cc1c(-c2ccccc2)cc(Nc2ccc(F)cc2)n2c1nc1ccccc12` ?
Outgoing: NO

###

# GI50 per entry
# Test system: HOP-62
# METHOD NOTES: NCI tumour cell line growth inhibition, 48 h
Active and inactive are the calls of the source. Cut-off read from the data, not from the text of the source: active = GI50 up to about 1.1 µM and inactive = higher.

Record excerpt, results attached:
O=C(O)C1=C(Cl)c2ccccc2S1(=O)=O :: > 100 µM (inactive)
[N-]=[N+]=NC1=CC(=O)c2cccc3cccc1c23 :: 15.7 µM (inactive)
NC(Cc1cc(I)c(Oc2ccc(O)c(I)c2)c(I)c1)C(=O)O (stereo not given) :: > 100 µM (inactive)
CCNC1=C(NC(=O)c2ccccc2)C(=O)c2ccccc2C1=O :: 66.2 µM (inactive)
C/C=C/[C@@H]1[C@H]2C(=O)[C@]3(Cl)[C@@H](/C=C/C)[C@@H]3C(=O)[C@@]12Cl :: 33.7 µM (inactive)

Incoming: Item under review: COC(=O)CC1C=CC(C)(OC)OO1 (stereo not given) . Reported GI50?
Outgoing: > 100 µM (inactive)

Incoming: Then `Cc1ccc(/C(=C/C=C(C#N)C#N)Sc2cc(Cl)ccc2Cl)cc1` ?
Outgoing: 3.71 µM (inactive)

Incoming: Then COc1cc2c(cc1OC)C13CC[N+]4(C)CC5=CCOC6CC(=O)N2C1C6C5CC34[O-] (stereo not given) ?
Outgoing: > 100 µM (inactive)

Incoming: Then `Cc1cc(-c2ccc(C(=O)C(c3ccccc3)(c3ccccc3)c3ccccc3)[nH]2)on1` ?
Outgoing: 17.1 µM (inactive)

Incoming: Then O=C1/C(=C\c2cccc(Oc3ccccc3)c2)SC(c2ccccc2)N1c1cccc([N+](=O)[O-])c1 (stereo not given) ?
Outgoing: > 100 µM (inactive)
